Biological target: Nuclear receptor ROR-gamma (Mus musculus) (UniProt P51450)
Sequence (P51450 whole entry, looked up): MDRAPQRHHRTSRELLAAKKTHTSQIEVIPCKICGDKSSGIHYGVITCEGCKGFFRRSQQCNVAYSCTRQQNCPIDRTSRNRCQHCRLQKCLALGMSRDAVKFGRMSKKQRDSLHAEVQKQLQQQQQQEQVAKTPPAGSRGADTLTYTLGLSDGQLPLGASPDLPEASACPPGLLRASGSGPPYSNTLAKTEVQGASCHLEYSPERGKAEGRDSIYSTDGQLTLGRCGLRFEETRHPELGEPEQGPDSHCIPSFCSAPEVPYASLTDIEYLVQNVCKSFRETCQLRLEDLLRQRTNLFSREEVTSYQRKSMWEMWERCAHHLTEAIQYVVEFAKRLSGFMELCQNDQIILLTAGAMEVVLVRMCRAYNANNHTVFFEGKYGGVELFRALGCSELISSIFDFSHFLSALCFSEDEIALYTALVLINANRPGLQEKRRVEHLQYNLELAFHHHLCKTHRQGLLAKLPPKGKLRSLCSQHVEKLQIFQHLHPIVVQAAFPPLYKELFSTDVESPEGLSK
Assay: qHTS for inhibitors of ROR gamma transcriptional activity; note: nearly all actives have a fitted effect of over 60% in size
Details: Drosophila S2 Gal4-RORgamma UAS-luciferase reporter, 20 h; series mostly up to 53.6 µM
Source text: NIH Molecular Libraries Probe Production Network [MLPCN] NIH Chemical Genomics Center [NCGC] […] Small molecule inhibitors of ROR gamma activity are detected by a decrease in luciferase reporter activity. […]
Hit rate of the full screen: of about 310,000 compounds, about 17,000 (5.5%) were called active. Another 11% or so got no clear call; they are omitted. Calls come from the whole dose curve; as a rule, active = well fitted inhibition curve with a large enough effect; inconclusive = small, poorly fitted or top-dose-only effect, or effect the other way; inactive = no such curve, though single readings can be large or run the other way. The full list was thinned out, with actives kept by preference.
Output constraint: value belongs to class 1 = active, class 0 = inactive

For orientation, consider the following solved cases.
{"Compound": "O=C(Nc1ccccc1F)c1ccccc1-c1ccccc1", "Discrete Label": "class 0"}
{"Compound": "CC(C)C(=O)NC(=S)Nc1ccccc1F", "Discrete Label": "class 1"}
{"Compound": "S=C(NCCC1=CCCCC1)Nc1ccccc1", "Discrete Label": "class 1"}
{"Compound": "CCc1nnc(NC(=O)CCC(=O)N2CCN(c3cc(C)ccc3C)CC2)s1", "Discrete Label": "class 0"}
{"Compound": "O=C(Nc1nnc(-c2ccccc2)o1)c1cc(-c2cccs2)nc2ccccc12", "Discrete Label": "class 1"}
{"Compound": "CC(=O)Nc1ccc(S(=O)(=O)N(C)CC(=O)NCCC2=CCCCC2)cc1", "Discrete Label": "class 0"}

Prompt: Recorded test outcome, item "CCCCN(C)CCCNC(=O)c1cc(-c2cccs2)nc2ccccc12"
Completion: class 0

Prompt: Also "O=C(NCc1ccco1)/C(=C\c1cccc([N+](=O)[O-])c1)NC(=O)c1ccco1" , if possible.
Completion: class 0

Prompt: Also "CC(C)CC(=O)NC(=S)Nc1ccc(F)cc1F" , if possible.
Completion: class 0

Prompt: Also "Cc1sc2ncn(CC(=O)NCCCC(=O)N3CCN(c4ccccc4F)CC3)c(=O)c2c1C" , if possible.
Completion: class 0

Prompt: Also CCC1CCCCN1C(=O)CSc1nc2c(c(=O)n1C)SC(C)C2 (stereo unspecified) , if possible.
Completion: class 0
